The measured values listed here are drawn from paper PMC12586182.

Recorded Percentage inhibition of kinase enzyme activity for the following molecules
- experimentalTarget: PAK1 (Homo sapiens, UniProt Q13153)
- Construct: purchased Carna Biosciences
- Sequence (Q13153 whole entry): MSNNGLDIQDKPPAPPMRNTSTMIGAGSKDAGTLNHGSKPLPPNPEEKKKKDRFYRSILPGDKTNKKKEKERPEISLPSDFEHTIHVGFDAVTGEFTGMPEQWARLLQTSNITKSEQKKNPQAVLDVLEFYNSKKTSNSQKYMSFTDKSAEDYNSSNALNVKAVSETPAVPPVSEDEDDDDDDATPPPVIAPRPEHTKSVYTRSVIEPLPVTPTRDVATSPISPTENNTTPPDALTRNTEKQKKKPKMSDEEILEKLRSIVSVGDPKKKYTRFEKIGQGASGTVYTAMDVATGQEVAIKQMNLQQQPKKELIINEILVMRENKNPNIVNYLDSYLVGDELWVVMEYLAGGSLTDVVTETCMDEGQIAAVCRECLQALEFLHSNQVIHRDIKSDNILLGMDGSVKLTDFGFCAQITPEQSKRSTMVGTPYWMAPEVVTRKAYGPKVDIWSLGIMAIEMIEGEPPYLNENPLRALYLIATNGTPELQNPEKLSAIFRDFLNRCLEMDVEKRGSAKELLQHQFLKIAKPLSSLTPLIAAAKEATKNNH
- measurementProtocol: Kinase panel profiling at 1 µmol/L (mobility shift assay, Carna)
- Assay type: biochemical
- experimentalConditions: 1 µmol/L of BTK inhibitor
Please reply with the bare figure in % and do not write the unit itself.

INSERT INTO results (smilesnotation, uom, valueobserved) VALUES
  ('C=CC(=O)N1CCC[C@@H](n2nc(-c3ccc(Oc4ccccc4)cc3)c3c(N)ncnc32)C1', '%', 6.57),
  ('O=C(c1ccc(Oc2ccccc2)cc1Cl)c1c[nH]c2ncnc(N[C@@H]3CC[C@@H](CO)OC3)c12', '%', 79.33),
  ('COc1ccc(F)cc1C(=O)NCc1ccc(-c2nn([C@@H](C)C(F)(F)F)c(N)c2C(N)=O)cc1', '%', 5.73);

# context switch: different molecule, same Percentage inhibition of kinase enzyme activity
Inquiry: State the recorded Percentage inhibition of kinase enzyme activity for this entry: CC#CC(=O)N1CCC[C@H]1c1nc(-c2ccc(C(=O)Nc3ccccn3)cc2)c2c(N)nccn12
Reply text: -0.37

----------
- experimentalTarget: TSSK2 (Homo sapiens)
- Construct: purchased Carna Biosciences
- Sequence (Q96PF2 whole entry): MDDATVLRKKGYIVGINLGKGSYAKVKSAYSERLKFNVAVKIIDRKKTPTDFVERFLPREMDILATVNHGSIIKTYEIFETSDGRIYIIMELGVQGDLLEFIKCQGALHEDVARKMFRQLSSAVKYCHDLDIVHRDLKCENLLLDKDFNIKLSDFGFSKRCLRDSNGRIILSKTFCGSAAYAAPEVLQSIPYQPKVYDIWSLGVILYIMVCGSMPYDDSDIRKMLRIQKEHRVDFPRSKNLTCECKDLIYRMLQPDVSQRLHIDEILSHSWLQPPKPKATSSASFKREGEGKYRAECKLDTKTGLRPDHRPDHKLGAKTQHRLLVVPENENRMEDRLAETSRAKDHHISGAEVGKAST
- measurementProtocol: Kinase panel profiling at 1 µmol/L (mobility shift assay, Carna)
- Type: biochemical
- experimentalConditions: 1 µmol/L of BTK inhibitor
Recorded Percentage inhibition of kinase enzyme activity for the following compounds
Please reply with the bare figure in % and do not write the unit itself.

Use the examples below as a reference point.
INSERT INTO assay_data (compound, uom, valueobserved) VALUES
  ('CC#CC(=O)N1CCC[C@H]1c1nc(-c2ccc(C(=O)Nc3ccccn3)cc2)c2c(N)nccn12 [acalabrutinib]', '%', -3.11),
  ('C=CC(=O)N1CCC[C@@H](n2nc(-c3ccc(Oc4ccccc4)cc3)c3c(N)ncnc32)C1 [ibrutinib]', '%', -3.91),
  ('O=C(c1ccc(Oc2ccccc2)cc1Cl)c1c[nH]c2ncnc(N[C@@H]3CC[C@@H](CO)OC3)c12 [nemtabrutinib]', '%', -0.84);

Inquiry: State the recorded Percentage inhibition of kinase enzyme activity for this entry: COc1ccc(F)cc1C(=O)NCc1ccc(-c2nn([C@@H](C)C(F)(F)F)c(N)c2C(N)=O)cc1 [pirtobrutinib]
Reply text: -11.71

----------
Recorded Percentage inhibition of kinase enzyme activity for the following compounds
- experimentalTarget: KIT (Homo sapiens)
- Construct: purchased Carna Biosciences
- Sequence (P10721 26-976): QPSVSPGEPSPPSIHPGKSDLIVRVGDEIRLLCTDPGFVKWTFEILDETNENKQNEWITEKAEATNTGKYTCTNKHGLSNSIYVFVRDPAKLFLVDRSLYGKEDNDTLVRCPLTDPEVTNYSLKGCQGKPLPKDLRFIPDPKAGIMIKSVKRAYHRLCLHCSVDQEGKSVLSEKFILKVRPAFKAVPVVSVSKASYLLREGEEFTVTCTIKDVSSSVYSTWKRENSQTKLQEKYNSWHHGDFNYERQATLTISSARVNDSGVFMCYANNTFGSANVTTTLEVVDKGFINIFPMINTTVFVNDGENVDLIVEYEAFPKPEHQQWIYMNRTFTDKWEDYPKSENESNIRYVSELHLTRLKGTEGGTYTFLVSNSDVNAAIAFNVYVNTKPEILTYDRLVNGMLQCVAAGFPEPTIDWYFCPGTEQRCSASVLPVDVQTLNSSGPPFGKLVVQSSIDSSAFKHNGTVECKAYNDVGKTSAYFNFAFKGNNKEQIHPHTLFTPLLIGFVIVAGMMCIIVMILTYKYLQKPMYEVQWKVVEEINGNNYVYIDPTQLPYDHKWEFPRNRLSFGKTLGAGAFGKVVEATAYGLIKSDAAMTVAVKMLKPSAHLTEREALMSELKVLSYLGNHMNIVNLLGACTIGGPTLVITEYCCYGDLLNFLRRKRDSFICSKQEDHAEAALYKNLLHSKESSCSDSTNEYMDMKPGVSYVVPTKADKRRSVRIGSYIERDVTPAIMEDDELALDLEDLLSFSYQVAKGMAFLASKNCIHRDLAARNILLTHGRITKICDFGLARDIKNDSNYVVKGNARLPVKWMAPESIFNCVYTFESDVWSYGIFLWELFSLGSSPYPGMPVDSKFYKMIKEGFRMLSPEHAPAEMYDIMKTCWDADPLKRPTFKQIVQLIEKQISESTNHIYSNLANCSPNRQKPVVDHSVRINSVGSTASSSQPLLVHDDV
- measurementProtocol: Kinase panel profiling at 1 µmol/L (mobility shift assay, Carna)
- Type: biochemical
- experimentalConditions: 1 µmol/L of BTK inhibitor
Please reply with the bare figure in % and do not write the unit itself.

Inquiry: State the recorded Percentage inhibition of kinase enzyme activity for this entry: CC#CC(=O)N1CCC[C@H]1c1nc(-c2ccc(C(=O)Nc3ccccn3)cc2)c2c(N)nccn12 [acalabrutinib]
Reply text: 2.89

Inquiry: Item: COc1ccc(F)cc1C(=O)NCc1ccc(-c2nn([C@@H](C)C(F)(F)F)c(N)c2C(N)=O)cc1 [pirtobrutinib]
Reply text: -5.95

Inquiry: Item: C=CC(=O)N1CCC([C@@H]2CCNc3c(C(N)=O)c(-c4ccc(Oc5ccccc5)cc4)nn32)CC1 [zanubrutinib]
Reply text: -2.78

Inquiry: Item: C=CC(=O)N1CCC[C@@H](n2nc(-c3ccc(Oc4ccccc4)cc3)c3c(N)ncnc32)C1 [ibrutinib]
Reply text: -4.53

Inquiry: Item: O=C(c1ccc(Oc2ccccc2)cc1Cl)c1c[nH]c2ncnc(N[C@@H]3CC[C@@H](CO)OC3)c12 [nemtabrutinib]
Reply text: 78.81
